# procedure text: Cytotoxicity assay against leukemic K562 cells, MTT
# assay context: human, K562 leukemic cells
observable: viability at 24 h, 6.25 µg/mL (%)
# number only, unit % dropped from output

{"molecule": "CC[C@H](C)[C@@H](OC(C)=O)[C@@H](C)C1=CC(=O)C2=C(O[C@]3(C)CC[C@H]4O[C@@H](C(C)(C)O)CC[C@]4(C)[C@H]3[C@@H]2O)C1=O", "observable": "viability at 24 h, 6.25 µg/mL", "data value": 71}

Asked: Suppose we examine the molecule CC[C@H](C)[C@@H](OC(C)=O)[C@@H](C)C1=CC(=O)C2=C(O[C@]3(C)CC[C@H]4O[C@@H](C(C)(C)O)CC[C@]4(C)C3=C2)C1=O [Compound 4, anhydrocochlioquinone A] ; what viability at 24 h, 6.25 µg/mL value has been reported?
Given back: 19.5
